Test system: barley, winter
Test: Test D preemergence
Assay type: in vivo, Hordeum vulgare
Settings: Preemergence, 62 g ai/ha; scale 0 to 100
# reported Plant response rating, Barley, Winter; entries follow
Answer with the value's number alone.

CCc1cc(C(=O)NCC(F)(F)F)nn1Cc1ccnc(SC(F)(F)F)c1 [Compound 214]; 35
O=C(NC1CC1)c1cc(CCF)n(Cc2ccnc(C(F)(F)F)c2)n1 [Compound 176]; 0
Cc1cc(C(=O)NCC(F)(F)F)nn1Cc1ccnc(C(F)(F)F)c1 [Compound 74]; 0
CCCc1cc(C(=O)NC(C)C)nn1Cc1cc(C(F)(F)F)nn1C [Compound 201]; 35
CCc1cc(C(=O)NC2CC2)nn1Cc1ccnc(C(F)(F)F)c1 [Compound 76]; 15

Kindly review the next molecule as well.
Request: Would you mind telling me what Plant response rating, Barley, Winter value was observed for CCCc1cc(C(=O)NC2CC2)nn1Cc1cc(C(F)(F)F)nn1C [Compound 202] ?
Response: 0

###

# reported Plant response rating, Johnsongrass; entries follow
Tested on: johnsongrass
Experiment: Test C preemergence
Assay type: in vivo, Sorghum halepense
Details: preemergence, 125 g ai/ha; 13 to 15 days; scale 0 to 100, 0 = no effect, 100 = complete control
Answer with the value's number alone.

O=C(NC1CC1)c1cc(CCCl)n(Cc2ccnc(C(F)(F)F)c2)n1; 75

Request: Query the reported Plant response rating, Johnsongrass for johnsongrass; item: "CCCc1cc(C(=O)NOC(C)C)nn1Cc1cc(C(F)(F)F)nn1C"
Response: 40

Request: Query the reported Plant response rating, Johnsongrass for johnsongrass; item: "CCONC(=O)c1cc(CC)n(Cc2ccnc(OC(F)F)c2)n1"
Response: 85

Request: Query the reported Plant response rating, Johnsongrass for johnsongrass; item: "CCCc1cc(C(=O)NC2CC2)nn1Cc1cc(C(F)(F)F)nn1C"
Response: 100

###

# reported Pigweed plant response rating; entries follow
Test system: pigweed
Assay: Test C preemergence
Assay type: in vivo, Amaranthus retroflexus
Conditions: preemergence, 62 g ai/ha; scale 0 to 100 (0 no effect, 100 complete control), 13 to 15 days
Answer with the value's number alone.

Request: Would you mind telling me what Pigweed plant response rating value was observed for "CCCc1cc(C(=O)NC2CC2)nn1Cc1ccnc(OC(F)F)c1" ?
Response: 100

Request: Would you mind telling me what Pigweed plant response rating value was observed for "CCc1cc(C(=O)NCC(F)(F)F)nn1Cc1ccnc(Br)c1" ?
Response: 100

Request: Would you mind telling me what Pigweed plant response rating value was observed for "O=C(NCC(F)(F)F)c1cc(CCF)n(Cc2ccnc(C(F)(F)F)c2)n1" ?
Response: 100

Request: Would you mind telling me what Pigweed plant response rating value was observed for "CCCNC(=O)c1cc(OCC)n(Cc2ccnc(OC(F)F)c2)n1" ?
Response: 70

Request: Would you mind telling me what Pigweed plant response rating value was observed for "CCc1cc(C(=O)NC2CC2)nn1Cc1ccnc(Br)c1" ?
Response: 100

Request: Would you mind telling me what Pigweed plant response rating value was observed for "O=C(NC1CC1)c1cc(CCCl)n(Cc2ccnc(C(F)(F)F)c2)n1" ?
Response: 100

###

Tested on: corn
Test: Test A postemergence
Type: in vivo, Zea mays
Conditions: Postemergence, 1000 g ai/ha; visual rating after approx. 10 days, 0 to 100 scale (0 no effect, 100 complete control)
Endpoint label: Corn plant response rating
Answer with the value's number alone.

Record excerpt, results attached:
CCc1cc(C(=O)N(C)OC)nn1Cc1cccc(C(F)(F)F)c1; 30
CCCNC(=O)c1cc(CC)n(Cc2cccc(C(F)(F)F)c2)n1; 50
CCc1cc(C(=O)NC2CC2)nn1Cc1cccc(C(F)(F)F)c1; 70

Request: Would you mind telling me what Corn plant response rating value was observed for "CCc1cc(C(=O)NCC2CC2)nn1Cc1cccc(OC(F)(F)F)c1" ?
Response: 40

Request: Would you mind telling me what Corn plant response rating value was observed for "C#CCNC(=O)c1cc(CC)n(Cc2cccc(OC(F)(F)F)c2)n1" ?
Response: 20

Request: Would you mind telling me what Corn plant response rating value was observed for "Cc1cc(C(=O)NCC(F)(F)F)nn1Cc1ccnc(C(F)(F)F)c1" ?
Response: 100

Request: Would you mind telling me what Corn plant response rating value was observed for "O=C(NC1CC1)c1cc(C2CC2)n(Cc2cccc(OC(F)(F)F)c2)n1" ?
Response: 30

###

Tested on: wheat
Experiment: Test C preemergence
Format: in vivo, Triticum aestivum
Settings: preemergence, 125 g ai/ha; 13 to 15 days; scale 0 to 100, 0 = no effect, 100 = complete control
Outcome: Fulfilled for Plant response rating, Wheat of at least 80; Not fulfilled for anything lower.

Example results:
CCONC(=O)c1cc(CC)n(Cc2ccnc(OC(F)F)c2)n1; Not fulfilled
CCc1cc(C(=O)NCC(F)(F)F)nn1Cc1ccnc(SC(F)(F)F)c1; Not fulfilled

Request: Entry "O=C(NC1CC1)c1cc(CCF)n(Cc2ccnc(C(F)(F)F)c2)n1" : is its Plant response rating, Wheat no less than 80?
Response: Not fulfilled

Request: Entry "CCOc1cc(C(=O)NOC(C)C)nn1Cc1ccnc(C(F)(F)F)c1" : is its Plant response rating, Wheat no less than 80?
Response: Fulfilled

Request: Entry "CCCc1cc(C(=O)NCC(F)(F)F)nn1Cc1ccnc(OC(F)F)c1" : is its Plant response rating, Wheat no less than 80?
Response: Fulfilled

Request: Entry "CCCc1cc(C(=O)NC2CC2)nn1Cc1cc(C(F)(F)F)nn1C" : is its Plant response rating, Wheat no less than 80?
Response: Fulfilled

Request: Entry "CCCc1cc(C(=O)NOC(C)C)nn1Cc1cc(C(F)(F)F)nn1C" : is its Plant response rating, Wheat no less than 80?
Response: Fulfilled

Request: Entry "CCNC(=O)c1cc(CCF)n(Cc2ccnc(C(F)(F)F)c2)n1" : is its Plant response rating, Wheat no less than 80?
Response: Not fulfilled

###

# reported Plant response rating, Barnyardgrass; entries follow
Test system: barnyardgrass
Experiment: Test C postemergence
Type: in vivo, Echinochloa crus-galli
Settings: postemergence; 125 g ai/ha; scale 0 to 100, 0 no effect, 100 complete control
Answer with the value's number alone.

Record excerpt, results attached:
CCCNC(=O)c1cc(OCC)n(Cc2ccnc(C(F)(F)F)c2)n1; 15
CCCc1cc(C(=O)NC2CC2)nn1Cc1ccnc(OC(F)F)c1; 15
CCc1cc(C(=O)NC2CC2)nn1Cc1ccnc(Br)c1; 10

Request: Would you mind telling me what Plant response rating, Barnyardgrass value was observed for "CCc1cc(C(=O)NCC(F)(F)F)nn1Cc1nc(C(F)(F)F)nn1C" ?
Response: 5

Request: Would you mind telling me what Plant response rating, Barnyardgrass value was observed for "CCc1cc(C(=O)NC2CC2)nn1Cc1ccnc(C(F)(F)F)c1" ?
Response: 15

Request: Would you mind telling me what Plant response rating, Barnyardgrass value was observed for "CCNC(=O)c1cc(CC)n(Cc2cc(C(F)(F)F)nn2C)n1" ?
Response: 5

Request: Would you mind telling me what Plant response rating, Barnyardgrass value was observed for "CCc1cc(C(=O)NCC(F)(F)F)nn1Cc1ccnc(Br)c1" ?
Response: 10

###

# reported Plant response rating, Johnsongrass; entries follow
Tested on: johnsongrass
Test: Test C postemergence
Type: in vivo, Sorghum halepense
Conditions: postemergence, 250 g ai/ha; scale 0 to 100 (0 no effect, 100 complete control)
Answer with the value's number alone.

CCCc1cc(C(=O)NC2CC2)nn1Cc1cc(C(F)(F)F)nn1C; 25
CCOc1cc(C(=O)NOC(C)C)nn1Cc1ccnc(C(F)(F)F)c1; 5
CCCNC(=O)c1cc(OCC)n(Cc2ccnc(C(F)(F)F)c2)n1; 25

Request: Would you mind telling me what Plant response rating, Johnsongrass value was observed for "CCOc1cc(C(=O)NCC(F)(F)F)nn1Cc1ccnc(OC(F)F)c1" ?
Response: 10

Request: Would you mind telling me what Plant response rating, Johnsongrass value was observed for "CCCc1cc(C(=O)NC(C)C)nn1Cc1cc(C(F)(F)F)nn1C" ?
Response: 85

###

System: pigweed
Test: Test A postemergence
Assay type: in vivo, Amaranthus retroflexus
Conditions: Postemergence, 500 g ai/ha; visual rating after approx. 10 days, 0 to 100 scale (0 no effect, 100 complete control)
Endpoint label: Pigweed plant response rating
Answer with the value's number alone.

Record excerpt, results attached:
Cc1cc(C(=O)NCC(F)(F)F)nn1Cc1cc(F)cc(C(F)(F)F)c1; 60
CCCNC(=O)c1cc(CC)n(Cc2nc(C(F)(F)F)nn2C)n1; 90
CCc1cc(C(=O)Nc2ccc(F)cc2)nn1Oc1ccnc(C(F)(F)F)c1; 0

Request: Query the reported Pigweed plant response rating for pigweed; item: "CCc1cc(C(=O)NC2CC2)nn1Cc1ccnc(C(F)(F)F)c1"
Response: 100

Request: Query the reported Pigweed plant response rating for pigweed; item: "Cc1cc(C(=O)NCC(F)(F)C(F)(F)F)nn1Cc1cccc(OC(F)(F)F)c1"
Response: 60

Request: Query the reported Pigweed plant response rating for pigweed; item: "Cc1cc(C(=O)Nc2ccc(F)cc2)nn1Oc1ccnc(C(F)(F)F)c1"
Response: 0

Request: Query the reported Pigweed plant response rating for pigweed; item: "CCCNC(=O)c1cc(CC)n(Oc2ccnc(C(F)(F)F)c2)n1"
Response: 30

Request: Query the reported Pigweed plant response rating for pigweed; item: "CCCc1cc(C(=O)Nc2ccc(F)cc2)nn1Oc1ccnc(C(F)(F)F)c1"
Response: 0
